assayName: Population pharmacokinetic (PopPK) model of SAF-189s plasma concentrations (NONMEM)
Format: in vivo, human
conditionsUsed: non-parametric bootstrap
measurementLabel: Kout bootstrap estimate (day⁻¹)
State the answer as a number, implicitly in day⁻¹.

Ask: For the compound Cc1cc(Nc2ncc(Cl)c(Nc3ccccc3S(=O)(=O)C(C)C)n2)c2c(c1C1CCN(C)CC1)C[C@@H](C)O2 [SAF-189s] , report Kout bootstrap estimate.
Result: 1.35

----------
assayName: Population pharmacokinetic (PopPK) model of SAF-189s plasma concentrations (NONMEM)
Type: in vivo, human
conditionsUsed: time-varying inhibition rate constant, Table 2
measurementLabel: Kout typical value (day⁻¹)
Numeric answer only, unit day⁻¹ assumed.

Ask: Retrieve Kout typical value measured for Cc1cc(Nc2ncc(Cl)c(Nc3ccccc3S(=O)(=O)C(C)C)n2)c2c(c1C1CCN(C)CC1)C[C@@H](C)O2 [SAF-189s] and print it.
Result: 1.35

Just for reference, paper PMC11286589 is where these values come from.
